Assignment: determine reported abundance fitness for the given variants.
B1: Transitional endoplasmic reticulum ATPase, residues 26 to 106; numbered along this chain, P55072 (parent)
chain: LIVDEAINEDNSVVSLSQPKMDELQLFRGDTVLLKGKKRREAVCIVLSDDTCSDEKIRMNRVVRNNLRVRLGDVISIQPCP

# Variants of: B1
# Assay info: abundance fitness (aPCA) (normalised: wild type 0, dead -1); higher = more abundant; growth selection in yeast, the domain comes from the species named
# Setup conditions: Homo sapiens
Format: numeric value only, no unit, no commentary.

**Q:** Using known records, supply abundance fitness for `K20Q`
**A:** -0.014

**Q:** Entry `I7W` needs its abundance fitness filled in; supply it.
**A:** -0.003

**Q:** Identify measured abundance fitness corresponding to `L71N`
**A:** 0.103

**Q:** Provide abundance fitness value for the following variant: `D50N`
**A:** -0.105

**Q:** Look up abundance fitness of `C44R` and report it.
**A:** -0.104

**Q:** # return recorded abundance fitness for input `T51E`
**A:** 0.05

**Q:** Identify measured abundance fitness associated with `I77T`
**A:** -0.672

**Q:** Kindly indicate its recorded abundance fitness. Item: `L33S`
**A:** -0.122

**Q:** Determine from records and report abundance fitness for `F27M`
**A:** -0.045

**Q:** Note down abundance fitness recorded for `D73W`
**A:** -0.412

**Q:** Fill in abundance fitness for record `T31Y`
**A:** -0.161
